Tested on: MOLT-4 leukemia
ASSAY_EXPLANATION: NCI-60 one-dose screen, 48 h (100 = growth as untreated, 0 = no growth, -100 = all killed)
EXPERIMENTAL_SETUP: 10 µM
This is part of a sample that, as a whole, favours compounds with a hit. Of some 83,000 tested, about 20% had one in any assay.
ENDPOINT_NAME: growth (%)
Answers are plain numbers, in %.

Cc1ccc(-n2c(C)nn3c(=O)c4c5c(sc4nc23)CN(C)CC5)cc1
97.9
S=C1N(c2ccccc2)CN(C2CCCCC2)CN1c1ccccc1
125
O=C1c2c(c3c4ccccc4n(CCCCCCN4CCOCC4)c3c3[nH]c4ccccc4c23)C(=O)N1O
66.3
COc1cc2ncnc(NC3CCC(O)CC3)c2cc1OC (stereo not given)
62.8

Let's switch to this molecule now.
Find the measured growth of COc1ccc(-c2nn(-c3cccc(Cl)c3)cc2-c2nc(N)[nH]c(=O)c2C#N)cc1 and report it. 53.7

* * *

Test system: OVCAR-3 ovarian
ASSAY_EXPLANATION: NCI-60 one-dose screen, 48 h (100 = growth as untreated, 0 = no growth, -100 = all killed)
EXPERIMENTAL_SETUP: 10 µM
Compounds without any hit were thinned out: in the full panel of roughly 83,000, 20% have a hit.
For each record, write down the corresponding growth.
Give bare numbers, in %.

Below are worked cases with known answers.
O=C(Cn1cc(CO)nn1)Nc1nc2ccccc2s1
101
C[C@@H](O)[C@H]1C(=O)N2C(C(=O)O)=C(SCCN=CN)C[C@H]12
-15
COc1cc(-c2nn(-c3cccc(NC(=O)CCN4CCN(c5ccccc5)CC4)c3)cc2-c2ccncc2)ccc1Cl
16.2
Nc1ccc(/C=N/Nc2ccnc3c(O)cccc23)c2cccnc12
20
CN1CCN(CC(=O)Nc2cccc(-n3cc(-c4ccncc4)c(-c4ccc(Cl)c(O)c4)n3)c2)CC1
12.8
CCCCCC(=O)O[C@]1(C(C)=O)CCC2C3CCC4=CC(=O)CC[C@]4(C)C3CC[C@@]21C (stereo not given in full)
7.34

Below are some compounds; for each one, tell me its growth.
1. COc1ccc(-c2cc(-c3ccc(Cl)cc3)nc(SCCCC(=O)NO)n2)cc1OC
2. CC(C)N(CCOc1cccc(-c2nc3sccn3c2-c2ccnc(S(C)(=O)=O)n2)c1)C(C)C
3. Cc1cc(SCc2ccccc2)nc(N)n1
4. Cc1cc(CC(C)CC(C)(C)C)n(O)c(=O)c1 (stereo not given) (tested in a mixture with another compound)
5. CCn1cc(C(=O)O)c(=O)c2cc(F)c(N3CCNCC3)cc21
6. c1cnc2[nH]cc(-c3nc(-c4ccsc4)cs3)c2c1
7. CC(CN(C)C)Oc1ccccc1NC1=C(Cl)C(=O)C(Nc2ccccc2OC(C)CN(C)C)=C(Cl)C1=O (stereo not given)
8. C[C@]12CCC3c4ccc(O)cc4C[C@@H](CCCCCCCCCS(=O)CCCC(F)(F)C(F)(F)F)C3C1CC[C@@H]2O (stereo not given in full)

6.86
90.6
123
24.2
114
84.2
-96.2
88.4

Below are some compounds; for each one, tell me its growth.
1. O=C(CCCNC(=O)c1nc(-c2ccccc2)n(-c2ccccc2)n1)NO
2. Cc1cc(NC(=O)c2ccc(C)c(Nc3nccc(-c4cccnc4)n3)c2)cc(-n2cnc(C)c2)c1
3. CCOC(=O)c1sc2ncnc(Nc3ccc4c(cnn4C(=O)Nc4ccc(C)c(Cl)c4)c3)c2c1C

1: 108; 2: -7.87; 3: 117

Below are some compounds; for each one, tell me its growth.
1. CN(C)CCCSc1ccccc1NC1=C(Cl)C(=O)C(Nc2ccccc2SCCCN(C)C)=C(Cl)C1=O
2. Cc1cc(Br)nnc1Br
3. IC(I)I

-93
112
106
